# Tested on: Human hepatoma cell HepG2
# Assay Summary: CCK-8 cell proliferation assay, HepG2
# Type: cell-based
# Experimental Context: HepG2 cells, CCK-8, 24 hrs with drug, OD 450 nm
Quick reference: IC50 of the listed items.
Value expressed in nM; do not type the unit.

The cases that follow already have their IC50 on record.
- Compound: "O=C(NCCCCCCC1CCN(C(=O)c2cc3ccccc3o2)C1)Nc1ccncc1 (stereo not drawn)"
  IC50, nM: 71
- Compound: "O=C(NCCCCCCC1CCN(C(=O)C2CCCN2)C1)Nc1ccncc1 (stereo not drawn)"
  IC50, nM: 119
- Compound: "O=C(NCCCCCCC1CCN(C(=O)c2ccc[nH]2)C1)Nc1ccncc1 (stereo not drawn)"
  IC50, nM: 75
- Compound: "COc1cccc(OC)c1C(=O)N1CCC(CCCCCNC(=O)Nc2ccnc(F)c2)C1 (stereo not drawn)"
  IC50, nM: 59

input: Look up IC50 of O=C(NCCCCCCC1CCN(C(=O)c2cccs2)C1)Nc1ccnc(F)c1 (stereo not drawn) and report it.
output: 81

input: Look up IC50 of O=C(NCCCCCC1CCN(C(=O)C2CCCN2)C1)Nc1ccncc1 (stereo not drawn) and report it.
output: 89

input: Look up IC50 of O=C(NCCCCCC1CCN(C(=O)c2cc3ccccc3[nH]2)C1)Nc1ccncc1 (stereo not drawn) and report it.
output: 77

input: Look up IC50 of O=C(NCCCCCC1CCN(C(=O)c2ccco2)C1)Nc1cc(F)nc(F)c1 (stereo not drawn) and report it.
output: 81

input: Look up IC50 of COc1cccc(OC)c1C(=O)N1CCC(CCCCCCCNC(=O)Nc2ccnc(F)c2)C1 (stereo not drawn) and report it.
output: 55

* * *

# Test system: Human gastric cancer cell MKN45
# Assay Summary: CCK-8 cell proliferation assay, MKN-45
# Assay type: cell-based
# Experimental Context: MKN-45 cells, CCK-8, 24 hrs with drug, OD 450 nm
Readout Kind: pIC50
Formally, pIC50 is defined as -log10 of the concentration c, with c in mol/L.

The cases that follow already have their pIC50 on record.
- Compound: "O=C(NCCCCCC1CCN(C(=O)c2cccs2)C1)Nc1ccncc1 (stereo not shown)"
  Target Desc: "Human gastric cancer cell MKN45"
  Readout Kind: "pIC50"
  Numeric Readout: 7.37
- Compound: "O=C(NCCCCCCC1CCN(C(=O)c2ccccc2)C1)Nc1ccnc(F)c1 (stereo not shown)"
  Target Desc: "Human gastric cancer cell MKN45"
  Readout Kind: "pIC50"
  Numeric Readout: 7.38
- Compound: "O=C(NCCCCCC1CCN(C(=O)C2CCCN2)C1)Nc1ccncc1 (stereo not shown)"
  Target Desc: "Human gastric cancer cell MKN45"
  Readout Kind: "pIC50"
  Numeric Readout: 7.04

input: Report its pIC50 with Human gastric cancer cell MKN45 as the test system: O=C(NCCCCCCC1CCN(C(=O)c2cccs2)C1)Nc1cccnc1 (stereo not shown)
output: 7.12

input: Report its pIC50 with Human gastric cancer cell MKN45 as the test system: O=C(NCCCCCC1CCN(C(=O)c2cc3ccccc3o2)C1)Nc1cc(F)nc(F)c1 (stereo not shown)
output: 7.28

input: Report its pIC50 with Human gastric cancer cell MKN45 as the test system: O=C(NCCCCCCC1CCN(C(=O)c2cccs2)C1)Nc1cc(F)nc(F)c1 (stereo not shown)
output: 7.21

input: Report its pIC50 with Human gastric cancer cell MKN45 as the test system: O=C(NCCCCCCC1CCN(C(=O)c2cc3ccccc3o2)C1)Nc1ccncc1 (stereo not shown)
output: 7.21

input: Report its pIC50 with Human gastric cancer cell MKN45 as the test system: COc1cccc(OC)c1C(=O)N1CCC(CCCCCCCNC(=O)Nc2ccnc(F)c2)C1 (stereo not shown)
output: 7.14

input: Report its pIC50 with Human gastric cancer cell MKN45 as the test system: COc1cccc(OC)c1C(=O)N1CCC(CCCCNC(=O)Nc2ccncc2)C1 (stereo not shown)
output: 6.96

input: Report its pIC50 with Human gastric cancer cell MKN45 as the test system: O=C(NCCCCCCC1CCN(C(=O)C2CCCN2)C1)Nc1ccncc1 (stereo not shown)
output: 7.24

input: Report its pIC50 with Human gastric cancer cell MKN45 as the test system: O=C(NCCCCCCCC1CCN(C(=O)c2ccccc2)C1)Nc1ccnc(F)c1 (stereo not shown)
output: 7.41

// data source = patent US12291515B2
